# test method notes: Associated plasma PK in the LU5269 xenograft study
# Assay type: in vivo, NOD/SCID mice
# assay context: mouse, 150 mg/kg; 150mpk, PO, QD*21, plasma after the last administration
measurement type: half-life (min)
Kindly answer with a numeric value in min, unit omitted.

Report half-life, nothing else, for this compound: CN1CC[C@@H](Nc2cccc3c(CC(F)(F)F)c(C#CCNC(=O)c4cnn(C(C)(C)C)c4N)nn23)[C@@H](F)C1
156

---

# test method notes: Pharmacokinetic study in SD rats
# Assay type: in vivo
# assay context: rat, plasma, 300 mg/kg, po 300 mpk
measurement type: Cmax (ng/mL)
Report only the number, with the unit ng/mL understood.

Indicate its recorded Cmax; the compound in question is CNC(=O)c1ccc(NCC#Cc2cc3c(N[C@@H]4CCN(C)C[C@@H]4F)cccc3n2CC(F)(F)F)c(OC)c1 [Control compound, reference compound]
25400

--- query ---
Indicate its recorded Cmax; the compound in question is CN1CC[C@@H](Nc2cccc3c(CC(F)(F)F)c(C#CCNC(=O)c4cnn(C(C)(C)C)c4N)nn23)[C@@H](F)C1
32800
